B1: library; numbered along this chain (parent)
chain: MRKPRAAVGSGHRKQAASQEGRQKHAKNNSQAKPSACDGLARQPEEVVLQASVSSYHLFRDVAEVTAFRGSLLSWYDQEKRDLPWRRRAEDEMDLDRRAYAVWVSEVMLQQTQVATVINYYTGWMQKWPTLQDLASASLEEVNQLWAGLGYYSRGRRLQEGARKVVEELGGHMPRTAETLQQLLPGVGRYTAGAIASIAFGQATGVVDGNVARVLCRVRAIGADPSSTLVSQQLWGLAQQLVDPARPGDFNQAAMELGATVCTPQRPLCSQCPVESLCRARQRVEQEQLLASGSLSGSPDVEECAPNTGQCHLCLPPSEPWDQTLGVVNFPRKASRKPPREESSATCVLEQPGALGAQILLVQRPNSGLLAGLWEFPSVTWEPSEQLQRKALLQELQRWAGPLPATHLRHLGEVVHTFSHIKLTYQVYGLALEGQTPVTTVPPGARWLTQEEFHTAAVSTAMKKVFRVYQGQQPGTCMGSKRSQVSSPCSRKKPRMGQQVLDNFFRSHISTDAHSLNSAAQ

# Variants of: B1
# assay.name: 8OG:A repair function score (normalized; synonymous = 0, nonsense = -1) (normalized log-likelihood score); higher = more repair activity (WT-like);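 further: cells sorted at 72 h after reporter transfection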
# experimental.context: with 8OG:A DNA repair reporter (GFP) in HEK-293 MUTYH KO cells
quantity: 8OG:A repair function score

>  <mutation.code>
Q144I

>  <quantity>
8OG:A repair function score

>  <result>
0.051

$$$$

Please give the measured 8OG:A repair function score for this variant: V102D
-0.89

Please look up its 8OG:A repair function score: L95Q
-0.0116

I have this variant here, S227G , and I need its recorded 8OG:A repair function score.
-0.0911

Fill in the blank: the reported 8OG:A repair function score of R491K is ____.
0.0262

Fill in: 8OG:A repair function score of A196Y is ___
-0.723

Data request, read-out 8OG:A repair function score, for Y100I
-1.67

Entry H454E : reported 8OG:A repair function score = ?
-0.068

Quick one: 8OG:A repair function score for K80Q ?
-0.0315

# lookup: 8OG:A repair function score of Q233T
0.244

Consider the variant shown here: Q426H What is its recorded 8OG:A repair function score?
-0.0882

Given the entry Q50S , report its measured 8OG:A repair function score.
0.0939

# lookup: 8OG:A repair function score of Q388R
0.206
